From: paper PMC8879095

- TEST_PROTOCOL: Antibiotic concentrations in porcine oral fluid after intramuscular application (UHPLC-MS/MS)
- Assay type: in vivo
- CONDITION_LABEL: oral fluid, pigs, i.m., time 30 d, posttreatment

# COMPOUND_STRUCTURE, Avarage Concentrations in oral fluid
measured = [
    ("CC[C@H]1OC(=O)C[C@@H](O)[C@H](C)[C@@H](O[C@@H]2O[C@H](C)[C@@H](O[C@H]3C[C@@](C)(O)[C@@H](O)[C@H](C)O3)[C@H](N(C)C)[C@H]2O)[C@@H](CC=O)C[C@@H](C)C(=O)/C=C/C(C)=C/[C@@H]1CO[C@@H]1O[C@H](C)[C@@H](O)[C@@H](OC)[C@H]1OC", "<LOQ"),
    ("CC1(C)S[C@@H]2[C@H](NC(=O)Cc3ccccc3)C(=O)N2[C@H]1C(=O)O", "<LOQ"),
    ("CC1(C)S[C@@H]2[C@H](NC(=O)[C@H](N)c3ccc(O)cc3)C(=O)N2[C@H]1C(=O)O", "<LOQ"),
]

====

- TEST_PROTOCOL: Antibiotic concentrations in porcine oral fluid after intramuscular application (UHPLC-MS/MS)
- Type: in vivo
- CONDITION_LABEL: oral fluid, pigs, i.m., time 1 d (24 h after first injection), treatment period
Please respond with reported Avarage Concentrations in oral fluid for every item in the list.

Prompt: Would you kindly share the measured Avarage Concentrations in oral fluid for COc1cc(Cc2cnc(N)nc2N)cc(OC)c1OC ?
Completion: 14,100 ± 2556 µg/L

Prompt: Fill in the blank: the reported Avarage Concentrations in oral fluid of COc1ncnc(NS(=O)(=O)c2ccc(N)cc2)c1OC is ____.
Completion: 22,300 ± 3555 µg/L

Prompt: Consider the molecule CCC[C@@H]1C[C@@H](C(=O)N[C@@H]([C@H]2O[C@H](SC)[C@H](O)[C@@H](O)[C@H]2O)[C@@H](C)O)N(C)C1 and give its measured Avarage Concentrations in oral fluid.
Completion: 10,500 ± 1889 µg/L
